Values from ChEMBL document CHEMBL4118078

target: Cannabinoid receptor 2 (Homo sapiens, UniProt P34972); test: Agonist activity at CB2 receptor (unknown origin) expressed in CHO cells assessed as induction of calcium mobilization by fluo-4 AM dye-based fluorescence assay
Sequence (P34972 whole entry): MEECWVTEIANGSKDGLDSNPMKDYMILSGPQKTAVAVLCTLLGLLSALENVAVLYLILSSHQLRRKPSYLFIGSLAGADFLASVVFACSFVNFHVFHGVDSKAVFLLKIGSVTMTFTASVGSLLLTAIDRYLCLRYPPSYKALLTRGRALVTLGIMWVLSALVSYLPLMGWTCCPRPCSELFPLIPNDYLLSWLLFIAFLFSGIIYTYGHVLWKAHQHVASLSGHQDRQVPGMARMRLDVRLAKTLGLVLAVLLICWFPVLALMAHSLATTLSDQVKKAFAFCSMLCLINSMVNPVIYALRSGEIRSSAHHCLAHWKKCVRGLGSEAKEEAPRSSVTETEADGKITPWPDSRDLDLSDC
Exercise: for every item that follows, state its recorded EC50.
Could you give me the number in nM? Just the number is fine.

Please fill in: EC50 reported for `CC(C)c1cc(N2CCOCC2)nnc1C(=O)NC12CC3CC(CC(C3)C1)C2` = 396

Please fill in: EC50 reported for `CC(C)c1cc(NC2CCCC2)nnc1C(=O)NC12CC3CC(CC(C3)C1)C2` = 301

Please fill in: EC50 reported for `CC(C)c1cc(NC2CCCC2)nnc1C(=O)NC1CCCCC1` = 338

Please fill in: EC50 reported for CC(C)c1cc(C(=O)NC2C3CC4CC(C3)CC2C4)nnc1N1CCOCC1 (stereo unspecified) = 403

Please fill in: EC50 reported for `CC(C)c1cc(NCCO)nnc1C(=O)NC1CCCCC1` = 842

Please fill in: EC50 reported for CC(C)c1cc(N2CCCCC2)nnc1C(=O)NC1C2CC3CC(C2)CC1C3 (stereo unspecified) = 18.1

Please fill in: EC50 reported for O=C(NC1C2CC3CC(C2)CC1C3)c1ccc(N2CCOCC2)nn1 (stereo unspecified) = 8420

Please fill in: EC50 reported for CC(C)c1cc(NCC2CC2)nnc1C(=O)NC1C2CC3CC(C2)CC1C3 (stereo unspecified) = 47.7

Please fill in: EC50 reported for `CC(C)c1cc(NCCO)nnc1C(=O)NC12CC3CC(CC(C3)C1)C2` = 42.6
